# Assay: MDCK-MDR1 permeability assay
# Assay type: in vitro ADME
# Details: dog

Compound	Papp A→B (×10⁻⁶ cm/s)
Cc1nc(C)c2c(n1)sc1c(NCc3ccc(C(C)(C)O)cc3)nccc12 [22g]	47

###

# Assay: Binding in brain homogenate from rat (equilibrium dialysis)
# Format: in vitro ADME
# Details: fraction unbound; equilibrium dialysis; rat brain homogenates
Threshold-based label: rat fbrain under 0.01 gives met, rat fbrain not under 0.01 gives not met.

Molecule	Assigned label
Cc1nc(C)c2c(n1)sc1c(N3CC4(C3)CC(F)(F)C4)ncnc12 [14h]	not met
Cc1nc(C)c2c(n1)sc1c(N3CCCCC3)nccc12 [22e]	met
COc1ccc(CNc2nccc3c2sc2nc(C)nc(C)c23)cc1F [22j]	met
Cc1nc(C)c2c(n1)sc1c(N3CC4CC4C3)ncnc12 (stereo not shown) [14i]	not met
Cc1nc(C)c2c(n1)sc1c(N3CCCC3)nccc12 [22k]	met
Cc1nc(C)c2c(n1)sc1c(N3CCC(F)(F)C3)nccc12 [22f]	not met
Cc1nc(C)c2c(n1)sc1c(NCc3ccc(C(C)(C)O)cc3)nccc12 [22g]	not met

###

# Target or test system: hERG (Homo sapiens)
# Construct: Charles River Laboratories
# Sequence (Q12809 whole entry): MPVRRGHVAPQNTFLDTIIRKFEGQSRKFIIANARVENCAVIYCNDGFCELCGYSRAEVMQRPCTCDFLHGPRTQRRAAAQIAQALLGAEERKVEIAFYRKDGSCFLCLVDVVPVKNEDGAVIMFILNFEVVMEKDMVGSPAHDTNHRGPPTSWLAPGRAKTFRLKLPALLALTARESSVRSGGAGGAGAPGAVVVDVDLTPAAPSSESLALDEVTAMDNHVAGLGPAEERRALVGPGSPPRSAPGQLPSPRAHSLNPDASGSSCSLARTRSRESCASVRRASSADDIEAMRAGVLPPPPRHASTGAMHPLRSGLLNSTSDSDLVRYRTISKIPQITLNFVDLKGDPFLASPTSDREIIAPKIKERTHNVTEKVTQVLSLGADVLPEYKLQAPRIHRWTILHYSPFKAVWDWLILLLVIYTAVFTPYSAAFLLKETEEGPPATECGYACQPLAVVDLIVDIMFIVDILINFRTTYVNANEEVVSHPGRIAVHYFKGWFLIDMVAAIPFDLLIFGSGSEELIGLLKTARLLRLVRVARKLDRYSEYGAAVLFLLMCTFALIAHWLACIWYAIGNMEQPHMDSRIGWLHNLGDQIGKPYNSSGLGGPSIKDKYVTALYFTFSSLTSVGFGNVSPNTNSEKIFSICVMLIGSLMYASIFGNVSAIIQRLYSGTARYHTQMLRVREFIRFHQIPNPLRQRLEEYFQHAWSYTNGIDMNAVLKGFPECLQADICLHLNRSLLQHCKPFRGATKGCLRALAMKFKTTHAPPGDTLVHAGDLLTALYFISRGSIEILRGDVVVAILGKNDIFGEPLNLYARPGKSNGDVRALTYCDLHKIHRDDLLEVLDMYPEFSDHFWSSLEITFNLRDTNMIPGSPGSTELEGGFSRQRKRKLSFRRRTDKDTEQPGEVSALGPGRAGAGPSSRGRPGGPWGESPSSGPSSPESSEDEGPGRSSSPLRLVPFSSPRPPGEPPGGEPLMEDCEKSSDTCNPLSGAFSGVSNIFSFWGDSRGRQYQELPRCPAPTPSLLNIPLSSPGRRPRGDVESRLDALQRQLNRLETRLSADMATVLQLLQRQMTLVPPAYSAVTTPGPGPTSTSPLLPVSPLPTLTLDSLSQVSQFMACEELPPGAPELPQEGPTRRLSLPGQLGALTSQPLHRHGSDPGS
# Assay: Cardiac Ion Channel Panel – Charles River (QPatch HT patch clamp)
# Type: cell-based

Molecule	Target or test system	Units text	inhibition at 10 µM
Cc1nc(C)c2c(n1)sc1c(NCc3ccc(C(C)(C)O)cc3)nccc12 [22g]	hERG (Homo sapiens)	%	10.9

###

# Assay: In vivo dog iv/po PK
# Details: male, plasma; dog (beagle), iv 0.5 mg/kg; read-out: Vss

Compound	Vd
Cc1nc(C)c2c(n1)sc1c(NCc3ccc(C(C)(C)O)cc3)nccc12 [22g]	2.3 L/kg

###

# Target or test system: human M4 (hM4) (Homo sapiens)
# Construct: expressed in transfected cells
# Sequence (P08173 whole entry): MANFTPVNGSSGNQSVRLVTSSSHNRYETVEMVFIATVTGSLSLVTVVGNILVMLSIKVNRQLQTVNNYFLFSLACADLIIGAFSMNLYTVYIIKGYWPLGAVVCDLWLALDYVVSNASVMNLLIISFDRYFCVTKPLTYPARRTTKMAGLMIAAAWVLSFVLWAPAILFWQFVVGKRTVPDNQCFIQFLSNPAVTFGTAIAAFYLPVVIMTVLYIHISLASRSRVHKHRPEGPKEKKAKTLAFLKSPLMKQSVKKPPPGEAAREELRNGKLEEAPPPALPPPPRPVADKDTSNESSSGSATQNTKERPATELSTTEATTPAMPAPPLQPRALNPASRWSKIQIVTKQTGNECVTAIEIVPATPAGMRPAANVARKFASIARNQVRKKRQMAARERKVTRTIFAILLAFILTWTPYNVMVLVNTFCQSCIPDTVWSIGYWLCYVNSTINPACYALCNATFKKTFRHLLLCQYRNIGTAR
# Assay: Calcium mobilization assay, hM4/Gqi5-CHO cells, EC20 acetylcholine (PAM)
# Assay type: cell-based
# Details: in μM; read-out: hM4 EC50
Measurement label: EC50

Compound	Measurement label	Result
Cc1nc(C)c2c(n1)sc1c(NCc3ccc(C(C)(C)O)cc3)ncnc12 [14j]	EC50	> 1 µM
COc1ccc(CNc2ncnc3c2sc2nc(C)nc(C)c23)cc1F [14k]	EC50	> 1 µM

###

# Target or test system: CYP 2D6 (Homo sapiens, UniProt P10635)
# Sequence (P10635 whole entry): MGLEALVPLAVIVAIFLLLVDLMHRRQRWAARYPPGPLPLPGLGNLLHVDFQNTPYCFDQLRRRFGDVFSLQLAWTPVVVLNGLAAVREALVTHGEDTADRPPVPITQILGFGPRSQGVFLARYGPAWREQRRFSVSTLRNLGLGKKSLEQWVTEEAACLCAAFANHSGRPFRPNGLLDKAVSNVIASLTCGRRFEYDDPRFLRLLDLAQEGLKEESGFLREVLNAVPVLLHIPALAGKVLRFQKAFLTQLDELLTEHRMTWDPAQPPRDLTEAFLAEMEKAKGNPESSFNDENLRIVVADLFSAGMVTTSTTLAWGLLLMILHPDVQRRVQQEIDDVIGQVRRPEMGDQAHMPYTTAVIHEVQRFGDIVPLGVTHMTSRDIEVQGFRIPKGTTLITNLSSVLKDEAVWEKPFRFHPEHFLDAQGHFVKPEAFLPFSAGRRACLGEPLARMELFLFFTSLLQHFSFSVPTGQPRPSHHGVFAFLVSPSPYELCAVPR

Molecule	IC50
Cc1nc(C)c2c(n1)sc1c(NCc3ccc(C(C)(C)O)cc3)nccc12 [22g]	> 30 µM

###

# Target or test system: human M4 (hM4) (Homo sapiens)
# Construct: expressed in transfected cells
# Assay: Calcium mobilization assay, hM4/Gqi5-CHO cells, EC20 acetylcholine (PAM)
# Type: cell-based
# Details: calcium mobilization, hM4/Gqi5-CHO cells, EC20 acetylcholine; read-out: hM4 EC50
The entries below come with measured EC50 values attached.

Compound	Units text	Qual	EC50
Cc1nc(C)c2c(n1)sc1c(N3CCCC3)nccc12 [22k]	µM	<	0.19
Cc1nc(C)c2c(n1)sc1c(NCc3ccc(C(C)(C)O)cc3)ncnc12 [14j]	µM	=	1.3
COc1ccc(CNc2ncnc3c2sc2nc(C)nc(C)c23)cc1F [14k]	µM	=	1.2

###

# Assay: In vivo rat iv/po PK
# Details: male, Sprague-Dawley, plasma; rat (SD), po 30.0 mg/kg
Measurement label: Tmax (h)

Molecule	Numeric readout
Cc1nc(C)c2c(n1)sc1c(NCc3ccc(C(C)(C)O)cc3)nccc12 [22g]	5

Source of measurements: paper PMC11487561
